pIC50 listing for selected molecules.
# TARGET SYSTEM: NRAS WT (Homo sapiens (Human), UniProt P01111+P62937)
# Sequence (P01111 whole entry): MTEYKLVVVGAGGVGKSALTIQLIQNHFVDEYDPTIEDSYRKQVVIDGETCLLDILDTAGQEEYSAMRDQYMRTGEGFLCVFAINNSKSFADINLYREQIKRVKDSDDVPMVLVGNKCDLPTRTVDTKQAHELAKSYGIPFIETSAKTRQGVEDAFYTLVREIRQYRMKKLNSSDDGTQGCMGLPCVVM
# Sequence (P62937 whole entry): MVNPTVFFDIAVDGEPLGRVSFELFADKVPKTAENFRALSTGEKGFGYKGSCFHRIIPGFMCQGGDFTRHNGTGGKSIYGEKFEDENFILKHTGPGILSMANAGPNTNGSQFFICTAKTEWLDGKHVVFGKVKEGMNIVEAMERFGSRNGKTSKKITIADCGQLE
# PROTOCOL NOTES: Ras-Raf (BRAF RBD) disruption / FRET / MOA assay, NRAS WT
# Assay type: biochemical
# CONDITION INFO: read-out: IC50* NRAS WT FRET data
pIC50: −log10 of the molar value.

{"MOLECULE": "C=CC(=O)N1CCC[C@H]2CN(C(=O)N(C)[C@H](C(=O)N[C@H]3Cc4nc(cs4)-c4ccc5c(c4)c(c(-c4cccnc4[C@H](C)OC)n5CC)CC(C)(C)COC(=O)[C@@H]4CCCN(N4)C3=O)C(C)C)C[C@H]21 (atropisomer, axis not shown)", "MEASUREMENT KIND": "pIC50", "RESULT": "6.00 to 7.00"}

Provide pIC50 value for the following molecule: `C=CC(=O)N1CC[C@H](C(=O)N(C)[C@H](C(=O)N[C@H]2Cc3cc(O)cc(c3)-c3ccc4c(c3)c(c(-c3cn(C)cn3)n4CC)CC(C)(C)COC(=O)[C@@H]3CCCN(N3)C2=O)C(C)C)C1` < 5.00

Provide pIC50 value for the following molecule: C=CC(=O)N1CCC2(CCN(C(=O)N(C)[C@H](C(=O)N[C@H]3Cc4cccc(c4)-c4ccc5c(c4)c(c(-c4cccnc4[C@H](C)OC)n5CC)CC(C)(C)COC(=O)[C@@H]4CCCN(N4)C3=O)C(C)C)CC2)C1 (atropisomer, axis not shown) 6.00 to 7.00

Provide pIC50 value for the following molecule: C=CC(=O)N1CC[C@@]2(CCN(C(=O)N(C)[C@H](C(=O)N[C@H]3Cc4nc(cs4)-c4ccc5c(c4)c(c(-c4cccnc4[C@H](C)OC)n5CC)CC(C)(C)COC(=O)[C@@H]4CCCN(N4)C3=O)C(C)C)C2)C1 (atropisomer, axis not shown) 7.00 to 8.00
